Let's go through some recorded MIC values for DNA topoisomerase 1 (Bos taurus) together.
Metric Name: MIC (µM)

Please review the following examples before continuing.
molecule="COC1C(CO)OC(n2c3ccccc3c3c4c(c5c6ccccc6[nH]c5c32)C(=O)N(CCCCOC(=O)CBr)C4=O)C(O)C1O (stereo not drawn)" observed=1.44
molecule="COC1C(CO)OC(n2c3ccccc3c3c4c(c5c6ccccc6[nH]c5c32)C(=O)NC4=O)C(O)C1OC(=O)CBr (stereo not drawn)" observed=1.61
molecule="COC1C(CO)OC(n2c3c(Cl)cccc3c3c4c(c5c6cccc(Cl)c6[nH]c5c32)C(=O)N(CC(=O)CCl)C4=O)C(O)C1O (stereo not drawn)" observed=1.14
molecule="COC1C(COC(=O)CBr)OC(n2c3c(Cl)cccc3c3c4c(c5c6cccc(Cl)c6[nH]c5c32)C(=O)NC4=O)C(O)C1O (stereo not drawn)" observed=1.45

(A) COC1C(CO)OC(n2c3ccccc3c3c4c(c5c6ccccc6[nH]c5c32)C(=O)NC4=O)C(OC(=O)CBr)C1O (stereo not drawn)
(B) COC1C(CO)OC(n2c3ccccc3c3c4c(c5c6ccccc6[nH]c5c32)C(=O)NC4=O)C(OC(C)=O)C1O (stereo not drawn)
Q) Which entry has a larger number for MIC, A or B ? Indicate your choice by writing its label.
A) B

====

target: Protein kinase C (PKC); assay: Inhibition of protein kinase C (PKC); format: protein assay
Listed molecules paired with reported IC50

// solved cases for IC50 follow
molecule="COC1C(CO)OC(n2c3ccccc3c3c4c(c5c6ccccc6[nH]c5c32)C(=O)N(CCCCOC(=O)CBr)C4=O)C(O)C1O (stereo not drawn)" observed="> 144 µM"
molecule=CO[C@H]1[C@H](O)[C@@H](O)[C@H](n2c3ccccc3c3c4c(c5c6ccccc6[nH]c5c32)C(=O)NC4=O)O[C@@H]1CO observed="> 142 µM"
molecule="COC1C(COC(=O)CBr)OC(n2c3c(Cl)cccc3c3c4c(c5c6cccc(Cl)c6[nH]c5c32)C(=O)NC4=O)C(O)C1O (stereo not drawn)" observed="101 µM"

Q) Give the reported IC50 for COC1C(CO)OC(n2c3c(Cl)cccc3c3c4c(c5c6cccc(Cl)c6[nH]c5c32)C(=O)NC4=O)C(OC(=O)CBr)C1O (stereo not drawn) (system: Protein kinase C (PKC)).
A) 24 µM

Q) Lookup: IC50 / Protein kinase C (PKC) / COC1C(CO)OC(n2c3ccccc3c3c4c(c5c6ccccc6[nH]c5c32)C(=O)NC4=O)C(OC(=O)CBr)C1O (stereo not drawn)
A) > 162 µM

Q) What is its IC50 for Protein kinase C (PKC)? Entry: CO[C@H]1[C@H](O)[C@@H](O)[C@H](n2c3c(Cl)cccc3c3c4c(c5c6cccc(Cl)c6[nH]c5c32)C(=O)NC4=O)O[C@@H]1CO [REBECCAMYCIN]
A) > 175 µM

Q) So what IC50 did COC1C(CO)OC(n2c3ccccc3c3c4c(c5c6ccccc6[nH]c5c32)C(=O)NC4=O)C(O)C1OC(=O)CBr (stereo not drawn) get with Protein kinase C (PKC)?
A) > 161 µM

Q) Param readout= IC50; system= Protein kinase C (PKC); entry= COC1C(CO)OC(n2c3c(Cl)cccc3c3c4c(c5c6cccc(Cl)c6[nH]c5c32)C(=O)N(CC(=O)CCl)C4=O)C(O)C1O (stereo not drawn) ; returns value.
A) > 151 µM
